B1: Cyclin-F, residues 28 to 80; numbered along this chain, P41002 (parent)
chain: RNLTILSLPEDVLFHILKWLSVEDILAVRAVHSQLKDLVDNHASVWACASFQE

Variants of: B1
ASSAY: abundance fitness (aPCA) (normalised: wild type 0, dead -1); higher = more abundant; growth selection in yeast, the domain comes from the species named
MEASUREMENT_PARAMETERS: Homo sapiens
Tag: criterion met if measured abundance fitness is not below -0.6, criterion not met if it is.

# example entries with known answers
   mutant_name                cat
0         L13M      criterion met
1         Q52N      criterion met
2          L8N  criterion not met
3         H15V      criterion met

Threshold query (abundance fitness >= -0.6) on L35S
criterion not met

Reported abundance fitness at or above -0.6? V22S
criterion met
